All figures here come from ChEMBL document CHEMBL5247656.

Known pKd of a selection of compounds
subject_of_test: Son of sevenless homolog 1 (Homo sapiens, UniProt Q07889)
Sequence (Q07889 whole entry, the tested form may be a part): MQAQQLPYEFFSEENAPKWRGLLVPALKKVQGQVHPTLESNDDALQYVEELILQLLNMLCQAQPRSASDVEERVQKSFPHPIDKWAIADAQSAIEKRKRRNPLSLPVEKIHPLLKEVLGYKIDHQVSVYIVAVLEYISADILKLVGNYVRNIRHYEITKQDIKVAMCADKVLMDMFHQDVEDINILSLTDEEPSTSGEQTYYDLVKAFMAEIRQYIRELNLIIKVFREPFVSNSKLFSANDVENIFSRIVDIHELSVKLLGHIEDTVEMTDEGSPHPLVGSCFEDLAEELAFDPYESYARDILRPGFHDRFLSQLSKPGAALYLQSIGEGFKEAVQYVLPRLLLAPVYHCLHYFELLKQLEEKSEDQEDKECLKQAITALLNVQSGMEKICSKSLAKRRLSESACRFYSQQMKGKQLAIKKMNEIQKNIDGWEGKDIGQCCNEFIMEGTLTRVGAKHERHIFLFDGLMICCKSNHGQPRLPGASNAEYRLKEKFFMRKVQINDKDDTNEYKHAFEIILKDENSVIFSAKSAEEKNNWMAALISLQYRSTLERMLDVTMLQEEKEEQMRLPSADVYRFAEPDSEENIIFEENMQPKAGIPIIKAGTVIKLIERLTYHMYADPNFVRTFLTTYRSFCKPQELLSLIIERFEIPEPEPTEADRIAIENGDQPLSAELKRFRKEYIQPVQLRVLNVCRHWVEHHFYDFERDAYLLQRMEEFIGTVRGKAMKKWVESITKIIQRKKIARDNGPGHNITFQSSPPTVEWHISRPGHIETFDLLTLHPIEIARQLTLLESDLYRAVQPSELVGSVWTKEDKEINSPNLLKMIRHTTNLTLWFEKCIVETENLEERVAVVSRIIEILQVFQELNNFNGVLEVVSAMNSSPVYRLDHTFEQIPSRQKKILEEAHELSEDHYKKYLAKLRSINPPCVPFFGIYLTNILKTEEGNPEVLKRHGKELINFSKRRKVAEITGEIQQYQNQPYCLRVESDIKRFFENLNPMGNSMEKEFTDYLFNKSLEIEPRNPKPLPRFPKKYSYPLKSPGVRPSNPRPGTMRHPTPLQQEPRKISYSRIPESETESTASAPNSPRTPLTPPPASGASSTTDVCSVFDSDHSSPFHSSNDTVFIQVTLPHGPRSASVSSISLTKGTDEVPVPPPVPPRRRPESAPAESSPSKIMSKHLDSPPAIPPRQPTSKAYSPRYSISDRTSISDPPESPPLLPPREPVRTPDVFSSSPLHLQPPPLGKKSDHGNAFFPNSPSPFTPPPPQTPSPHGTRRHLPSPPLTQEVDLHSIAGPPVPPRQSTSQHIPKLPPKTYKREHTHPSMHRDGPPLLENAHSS
test: Binding affinity to GST-tagged human SOS1 (564 to 1049 residues) expressed in Escherichia coli BL21 (DE3) cells assessed as binary complex formation by measuring dissociation constant incubated for 15 mins by fluorescence polarization-based displacement assay
pKd: −log10 of the molar value.

| structure | pKd |
| --- | --- |
| COc1cc2nc(C)nc(N[C@H](C)c3cc(N)cc(C(F)(F)F)c3)c2cc1C1CCN(C(=O)CCCOCC(=O)N[C@H](C(=O)N2C[C@H](O)C[C@H]2C(=O)N[C@@H](C)c2ccc(-c3scnc3C)cc2)C(C)(C)C)CC1 | 7.20 |
| COc1cc2nc(C)nc(N[C@H](C)c3cc(N)cc(C(F)(F)F)c3)c2cc1C1CCN(C(=O)CCCCCC(=O)N[C@H](C(=O)N2C[C@H](O)C[C@H]2C(=O)N[C@@H](C)c2ccc(-c3scnc3C)cc2)C(C)(C)C)CC1 | 7.03 |
| COc1cc2nc(C)nc(N[C@H](C)c3cc(N)cc(C(F)(F)F)c3)c2cc1C1CCN(C(=O)CCCCC(=O)N[C@H](C(=O)N2C[C@H](O)C[C@H]2C(=O)N[C@@H](C)c2ccc(-c3scnc3C)cc2)C(C)(C)C)CC1 | 7.12 |
